- Run description: Restrictive medium S. cerevisiae growth inhibition, OD615, pilot screen of yeast lifespan reduction project, restrictive growth control (AID 706);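 also: modified DeaD lifespan yeast strain shifted to restrictive glucose medium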
- Condition set: OD615, 48 h, at 10 µM, active compounds read high

Compound	growth inhibition (%)
COc1ccc(NC(=O)CN(c2cc(C)cc(C)c2)S(=O)(=O)c2c(C)noc2C)cc1	-14.2
Cc1cc(C)nc(SCC(=O)NCc2ccco2)n1	6.47
COc1ccc(C)c2sc(=NC(=O)c3ccc(C#N)cc3)n(C)c12	-17.2
CC(=NCCc1ccccc1)C1=C(O)COC1=O	-6.99
O=C(CCCSc1nc2sc3c(c2c(=O)[nH]1)CCC3)NCCCO	6.12
Cc1c(Cl)cccc1NC(=O)CN1C(=O)CSc2ncccc21	-0.53
Cc1ccc(-n2nnc3c(=O)n(Cc4ccccc4C)cnc32)cc1	-6.7
O=C(O)CN1C(=O)COc2cc(S(=O)(=O)N3CCCC3)ccc21	-0.475
COc1ccc(S(=O)(=O)NCC2CCC(C(=O)N3CCC4(CC3)OCCO4)CC2)cc1 (stereo not drawn)	-3.68
COc1cccc(N(CC(=O)Nc2cccc(F)c2)S(C)(=O)=O)c1	-12.3
CCOC(=O)c1ccc(N2C(=O)c3n[nH]c(C)c3C2c2ccccn2)cc1 (stereo not drawn)	3.62
Brc1ccc(C2Nc3cccc4cccc(c34)N2)o1	-9.64
Cn1c(=O)cc(N2CCCCC2)[nH]c1=O	-7.48
O=C(CN(C1CCCCC1)S(=O)(=O)c1ccc(Cl)cc1)NCc1ccncc1	3.38
O=C(c1csc2c1CCCC2)N1CCCCC1	8.33
CN(C)c1ccc(C2N3CC4(C)CN2CC(C)(C3)C4O)cc1 (stereo not drawn)	-10.9
CN1CCN(c2cc(=O)n(C3CCCCC3)c(=O)[nH]2)CC1	-8.34
O=C(NCCc1ccccc1)C1CCN(S(=O)(=O)c2cccnc2)CC1	0.25
CCOC(=O)c1ccc(NC(=O)CSc2nc(C)cc(=O)[nH]2)cc1	8.13
CCCN(CCC)C(=O)COc1cc(=O)n(CC)c2ccccc12	-2.75
O=C1CCc2cc(S(=O)(=O)NC(C(=O)NCc3cccnc3)c3ccccc3)ccc2N1 (stereo not drawn)	4.59
CCCCOC(=O)Nc1ccc(S(=O)(=O)Nc2cc(C)nc(C)n2)cc1	-11.7
Nc1nc(SCc2ccc(Cl)cc2)ns1	7.05

###

- Run description: growth suppression of PTEN-deleted HCT116, pilot screen, cell-based, HCT116 clonal line, CellTiter-Glo (AID 824);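 also: 0% = 20 µM Hyamine control and 100% = vehicle cell control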
- Condition set: 60 h, at 10 µM, active compounds read low
Results filed as inconclusive are left out.

Molecule	viability / %
CCC(C)NC(=O)c1ccc(NC(=O)C2CCCO2)cc1 (stereo unspecified)	100
OCCOCCn1c(-c2ccccc2)nc(=S)c2c1CCCC2	106
COc1ccc(C(=O)CCC(=O)N2CCN(c3ccc(N4CCOCC4)nn3)CC2)cc1	93.8
O=C(Cn1nc(-c2ccc(Cl)cc2)ccc1=O)NCCN1CCOCC1	100
COc1ccccc1CNC(=O)C1COc2ccccc2O1 (stereo unspecified)	88.5
O=C(CSc1nnc(-c2ccccc2)o1)Nc1ccccc1F	38

###

- Run description: inhibitors of the yeast RAM network, pilot screen, dse1pr::URA3 reporter, 5-FOA selection (AID 869);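 also: 0% = DMSO wells with no growth and 100% = 10 µM 1-NA-PP1 with full growth; RAM network block rescues cells from 5-FOA so hits raise OD615 growth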
- Condition set: S. cerevisiae dse1pr::URA3 5-FOA growth, OD615, 2 d; at 10 µM; active compounds read high; strain carries analog-sensitive mutant Cbk1 kinase
# Lookup of reported inhibition keyed by entry
Quantity: inhibition (%)

Compound	Number
CC1(C)C(C#N)=C(N)OC2=C1C(=O)CCC2	2.41
CCc1cc2c(=O)c(Oc3ccccc3F)c(C)oc2c(CN(C)C)c1O	3.73
COc1ccc(-c2noc(Cc3cccs3)n2)cc1	2.76
Cn1c(=O)c2cc(S(=O)(=O)NC(C(=O)NCc3cccnc3)c3ccccc3)ccc2n(C)c1=O (stereo unspecified)	1.32
O=C(c1ccc(Cn2c(=O)[nH]c3ccccc3c2=O)cc1)N1CCN(c2ccccn2)CC1	0.23
COc1ccc(CN=CC2=C(O)CNC2=O)cc1OC	1.47
